- System Name: Adrenergic β2 (Homo sapiens, UniProt P07550)
- Construct: Adherent H292 cells were removed from tissue culture flasks; endogenous in cells; host or cells: H292 cells
- Sequence (P07550 whole entry): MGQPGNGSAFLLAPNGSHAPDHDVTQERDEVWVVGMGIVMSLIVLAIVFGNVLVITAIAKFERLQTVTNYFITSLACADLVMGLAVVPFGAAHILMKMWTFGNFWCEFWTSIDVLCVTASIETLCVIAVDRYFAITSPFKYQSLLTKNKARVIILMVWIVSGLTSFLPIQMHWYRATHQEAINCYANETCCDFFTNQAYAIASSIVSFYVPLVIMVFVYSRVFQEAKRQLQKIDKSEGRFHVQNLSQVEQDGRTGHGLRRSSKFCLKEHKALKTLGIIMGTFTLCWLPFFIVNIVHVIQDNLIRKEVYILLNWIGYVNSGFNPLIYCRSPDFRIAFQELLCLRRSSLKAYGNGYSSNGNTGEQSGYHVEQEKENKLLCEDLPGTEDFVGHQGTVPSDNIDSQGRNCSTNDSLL
- Assay Explanation: Adrenergic β2 mediated cAMP production in H292 cells (AlphaScreen cAMP detection)
- Assay type: cell-based
- Condition Summary: Intrinsic Activity, fraction relative to the maximum activity determined for formoterol
- Description: Adrenergic β2 Mediated cAMP Production H292 cells were grown in 225 cm2 flasks incubator at 37° C., 5% CO2 in RPMI medium containing, 10% (v/v) FBS (foetal bovine serum) and 2 mM L-glutamine. […] The concentration of cAMP (cyclic adenosine monophosphate) in the cell lysate was determined using AlphaScreen™ methodology. […] Intrinsic Activity was expressed as a fraction relative to the maximum activity determined for formoterol in each experiment.
Structures can show the parent of a compound that is named as a salt.
Result Type: β2 Int Act

>>> experimental_result("CC(C)(C)CN(CCNCCc1ccc(O)c2[nH]c(=O)sc12)C(=O)CCNCCc1cccc(Cl)c1 [Example 7, bis-trifluoroacetic acid salt]")
0.68
>>> experimental_result("O=C(CCNCCc1ccc(F)cc1)N(CCNCCc1ccc(O)c2[nH]c(=O)sc12)CC12CC3CC(CC(C3)C1)C2 [Example 61, bis-trifluoroacetic acid salt]")
0.79
>>> experimental_result("O=C(CCNCCc1cccs1)N(CCNCCc1ccc(O)c2[nH]c(=O)sc12)C1CCCCCC1 [Example 52, bis-trifluoroacetic acid salt]")
0.92
>>> experimental_result("O=C(CCNCCc1cccc(OC(F)F)c1)N(CCNCCc1ccc(O)c2[nH]c(=O)sc12)C1CCCCCC1 [Example 54, bis-trifluoroacetic acid salt]")
0.69
>>> experimental_result("CC(C)N(CCNCCc1ccc(O)c2[nH]c(=O)sc12)C(=O)CCNCCc1ccccc1 [Example 1, bis-trifluoroacetic acid salt]")
0.78
>>> experimental_result("O=C(CCNCCc1ccc(O)c(Cl)c1)N(CCNCCc1ccc(O)c2[nH]c(=O)sc12)C1CCCCC1 [Example 89, bis-trifluoroacetic acid salt]")
0.9
>>> experimental_result("Cc1cccc(CCNCCC(=O)N(CCNCCc2ccc(O)c3[nH]c(=O)sc23)CC(C)(C)C)c1 [Example 10, bis-trifluoroacetic acid salt]")
0.69
>>> experimental_result("O=C(CCNCCc1ccc(Cl)c(Cl)c1)N(CCNCCc1ccc(O)c2[nH]c(=O)sc12)C1CCOCC1 [Example 24, bis-trifluoroacetic acid salt]")
0.77
>>> experimental_result("Cc1cccc(CCNCCC(=O)N(CCNCCc2ccc(O)c3[nH]c(=O)sc23)C2CCCCCC2)c1 [Example 85, bis-trifluoroacetic acid salt]")
0.65
>>> experimental_result("COc1cccc(CCNCCC(=O)N(CCNCCc2ccc(O)c3[nH]c(=O)sc23)C2CCCCC2)c1 [Example 70, bis-trifluoroacetic acid salt]")
0.84
>>> experimental_result("O=C(CCNCCc1ccccc1)N(CCNCCc1ccc(O)c2[nH]c(=O)sc12)CC12CC3CC(CC(C3)C1)C2 [Example 59, bis-trifluoroacetic acid salt]")
0.85
>>> experimental_result("O=C(CCNCCc1cccc(O)c1)N(CCNCCc1ccc(O)c2[nH]c(=O)sc12)C1CCCCCCC1 [Example 90, bis-trifluoroacetic acid salt]")
0.71

----------
- System Name: Adrenergic β2 (Homo sapiens, UniProt P07550)
- Construct: Adherent H292 cells were removed from tissue culture flasks; endogenous in cells; host or cells: H292 cells
- Assay Explanation: Adrenergic β2 mediated cAMP production in H292 cells (AlphaScreen cAMP detection)
- Format: cell-based
- Condition Summary: Intrinsic Activity, fraction relative to the maximum activity determined for formoterol
Where a name gives a salt, the structure may show the parent alone.
Result Type: β2 Int Act

>>> experimental_result("O=C(CCNCCc1ccc2c(c1)OCO2)N(CCNCCc1ccc(O)c2[nH]c(=O)sc12)C1CCCCC1 [Example 76, bis-trifluoroacetic acid salt]")
0.68
>>> experimental_result("O=C(CCNCCc1ccccc1Cl)N(CCNCCc1ccc(O)c2[nH]c(=O)sc12)C1CCCCC1")
0.90
>>> experimental_result("CC1(C)CCC(N(CCNCCc2ccc(O)c3[nH]c(=O)sc23)C(=O)CCNCCc2cccc(O)c2)CC1 [Example 91, bis-trifluoroacetic acid salt]")
0.75
>>> experimental_result("CC(C)(CO)CN(CCNCCc1ccc(O)c2[nH]c(=O)sc12)C(=O)CCNCCc1ccc(Cl)cc1 [Example 40, diacetic acid salt]")
0.64
>>> experimental_result("C[C@H](CNCCC(=O)N(CCNCCc1ccc(O)c2[nH]c(=O)sc12)C1CCCCC1)c1ccccc1 [Example 18, bis-trifluoroacetic acid salt]")
0.89

[I] CC(C)(CNCCC(=O)N(CCNCCc1ccc(O)c2[nH]c(=O)sc12)C1CCCC1)c1ccccc1 [Example 32, bis-trifluoroacetic acid salt]
[II] O=C(CCNCCc1cccc(Cl)c1)N(CCNCCc1ccc(O)c2[nH]c(=O)sc12)C1CCCC1 [Example 30, bis-trifluoroacetic acid salt]
**Q:** Would you let me know which has the greater β2 Int Act value, I or II ? Indicate which entry you chose by stating its label.
**A:** II
